assay: in vitro; details: rat, liver microsomes
recorded metric: microsomal CLint at 2 h, 1 µM

QUERY: Report microsomal CLint at 2 h, 1 µM for C[C@H]1CCN1c1nc(N2CC[C@H](CCC(=O)O)C2)c2c(n1)C(F)(F)CC2 please.
RESULT: < 6.4 µL/min/mg

---

assay: AUC (0 to t) in Beagle dog at 5 mg/kg, po administered as single dose measured upto 24 hrs by LC-MS/MS analysis; format: ADME, organism-based, Canis lupus familiaris; design: dose 5 mg/kg, time < 24 hrs, route po; details: in vivo
recorded metric: AUCt (ng·h/mL)
Numeric only. Scale: ng·h/mL

QUERY: Report AUCt for C[C@H]1CCN1c1nc(N2CC[C@H](CCC(=O)O)C2)c2c(n1)C(F)(F)CC2 please.
RESULT: 33400

---

molecular target: Cytochrome P450 3A4 (Homo sapiens); assay: Time dependent inhibition of CYP3A4 in human liver microsomes at 10 uM preincubated for 30 mins followed by substrate addition and measured after 15 mins in presence of NADPH by LC-MS/MS analysis; assay type: ADME, Microsome
Sequence (P08684 whole entry): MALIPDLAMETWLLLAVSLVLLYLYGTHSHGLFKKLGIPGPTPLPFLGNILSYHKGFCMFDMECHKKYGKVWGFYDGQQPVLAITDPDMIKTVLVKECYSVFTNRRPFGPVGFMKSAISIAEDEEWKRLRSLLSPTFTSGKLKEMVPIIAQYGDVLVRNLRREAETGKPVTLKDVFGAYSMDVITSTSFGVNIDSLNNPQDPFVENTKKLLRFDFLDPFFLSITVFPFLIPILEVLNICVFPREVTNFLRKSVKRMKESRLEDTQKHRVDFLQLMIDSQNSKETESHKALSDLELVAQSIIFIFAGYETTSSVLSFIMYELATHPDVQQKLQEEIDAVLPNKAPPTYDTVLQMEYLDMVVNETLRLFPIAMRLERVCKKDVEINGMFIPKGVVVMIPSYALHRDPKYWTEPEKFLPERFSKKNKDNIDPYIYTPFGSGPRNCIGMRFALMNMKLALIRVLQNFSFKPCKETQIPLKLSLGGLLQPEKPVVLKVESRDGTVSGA
pIC50: −log10 of the molar value.
recorded metric: pIC50

QUERY: Report pIC50 for C[C@H]1CCN1c1nc(N2CC[C@H](CCC(=O)O)C2)c2c(n1)C(F)(F)CC2 please.
RESULT: < 5.00

---

assay: in vivo; conditions: Sprague-Dawley, rat, lung, po, 10 mg/kg
Description: Drug concentration in Sprague-Dawley rat lung at 10 mg/kg, po administered as single dose measured upto 24 hrs by LC-MS/MS analysis
recorded metric: concentration at 24 h (ng/g)
Numeric only. Scale: ng/g

QUERY: Report concentration at 24 h for C[C@H]1CCN1c1nc(N2CC[C@H](CCC(=O)O)C2)c2c(n1)C(F)(F)CC2 please.
RESULT: 620

---

assay: AUC (0 to infinity) in Beagle dog at 5 mg/kg, po administered as single dose measured upto 24 hrs by LC-MS/MS analysis; format: ADME, organism-based, Canis lupus familiaris; parameters: time < 24 hrs, dose 5 mg/kg, route po; settings: in vivo
recorded metric: AUC (ng·h/mL)
Numeric only. Scale: ng·h/mL

QUERY: Report AUC for C[C@H]1CCN1c1nc(N2CC[C@H](CCC(=O)O)C2)c2c(n1)C(F)(F)CC2 please.
RESULT: 34100

---

experiment: in vivo; conditions: Sprague-Dawley, rat, liver/plasma, po, 10 mg/kg
Description: Ratio of drug concentration in Sprague-Dawley rat liver to plasma at 10 mg/kg, po administered as single dose measured upto 24 hrs by LC-MS/MS analysis
recorded metric: Kp at 24 h
Number only, no unit.

QUERY: Report Kp at 24 h for C[C@H]1CCN1c1nc(N2CC[C@H](CCC(=O)O)C2)c2c(n1)C(F)(F)CC2 please.
RESULT: 9.9

---

assay: Cmax in Sprague-Dawley rat at 10 mg/kg, po administered as single dose measured upto 24 hrs by LC-MS/MS analysis; type: ADME, organism-based; parameters: time < 24 hrs, dose 10 mg/kg, route po; settings: in vivo
recorded metric: Cmax (ng/mL)
Numeric only. Scale: ng/mL

QUERY: Report Cmax for C[C@H]1CCN1c1nc(N2CC[C@H](CCC(=O)O)C2)c2c(n1)C(F)(F)CC2 please.
RESULT: 4900

---

assay: in vitro; details: human, liver microsomes
recorded metric: microsomal CLint at 2 h, 1 µM (µL/min/mg)
Numeric only. Scale: µL/min/mg

Known microsomal CLint at 2 h, 1 µM results, listed for orientation:
C[C@H]1CCN1c1nc(N2CCC3(CC3C(=O)O)C2)cc(C(F)(F)F)c1C#N (stereo partly drawn)
4.6
C[C@H]1CCN1c1nc(N2CCC3(CC(C(=O)O)C3)C2)cc(C(F)(F)F)c1C#N (stereo partly drawn)
6.2

Now examine the next entry.
QUERY: Report microsomal CLint at 2 h, 1 µM for C[C@H]1CCN1c1nc(N2C[C@H]3CC[C@H](C(=O)O)[C@H]3C2)cc(C(F)(F)F)c1C#N (racemic) please.
RESULT: 10.4

---

assay: AUC (0 to t) in Sprague-Dawley rat at 10 mg/kg, po administered as single dose measured upto 24 hrs by LC-MS/MS analysis; assay type: ADME, organism-based; parameters: time < 24 hrs, dose 10 mg/kg, route po; settings: in vivo
recorded metric: AUCt (ng·h/mL)
Numeric only. Scale: ng·h/mL

QUERY: Report AUCt for C[C@H]1CCN1c1nc(N2CC[C@H](CCC(=O)O)C2)c2c(n1)C(F)(F)CC2 please.
RESULT: 39900

---

experiment: in vitro; conditions: mouse, liver microsomes
recorded metric: microsomal CLint at 2 h, 1 µM (µL/min/mg)
Numeric only. Scale: µL/min/mg

QUERY: Report microsomal CLint at 2 h, 1 µM for C[C@H]1CCN1c1nc(N2CC[C@H](CCC(=O)O)C2)c2c(n1)C(F)(F)CC2 please.
RESULT: 8

---

Target sequence: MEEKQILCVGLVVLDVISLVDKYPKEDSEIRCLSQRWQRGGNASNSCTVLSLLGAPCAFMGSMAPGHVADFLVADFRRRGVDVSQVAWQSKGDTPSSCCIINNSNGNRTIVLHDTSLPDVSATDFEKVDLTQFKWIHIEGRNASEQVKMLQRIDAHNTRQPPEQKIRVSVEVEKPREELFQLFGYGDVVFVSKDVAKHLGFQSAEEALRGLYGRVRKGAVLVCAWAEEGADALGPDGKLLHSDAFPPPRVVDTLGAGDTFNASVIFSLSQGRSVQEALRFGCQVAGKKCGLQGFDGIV
recorded metric: pIC50
Scale: pIC50 equals -log10([C]), with [C] in mol/L.

C[C@H]1CCN1c1nc(N2C[C@@H](CC(=O)O)[C@H](O)C2)cc(C(F)(F)F)c1C#N (racemic)
6.86

QUERY: Report pIC50 for C[C@H]1CCN1c1nc(N2CC[C@H](CCC(=O)O)C2)c2c(n1)C(F)(F)CCC2 please.
RESULT: 7.05
